Cited source: PubChem BioAssay (NCI)

system: UACC-257 melanoma; experiment: NCI-60 one-dose screen, 48 h (100 = growth as untreated, 0 = no growth, -100 = all killed); details: 10 µM
Compounds without any hit were thinned out: in the full panel of roughly 83,000, 20% have a hit.
Record Criterion met whenever growth is at 90% or higher; record Criterion not met when lower.

[[record]]
smiles_notation = "CN(CCF)c1ccc(/C=C/C(=O)c2ccc(N)cc2O)cc1"
assigned_class = "Criterion met"

[[record]]
smiles_notation = "Cc1ccc(NC(=O)NCn2c(=O)[nH]c3ccccc3c2=O)cc1"
assigned_class = "Criterion met"

[[record]]
smiles_notation = "COc1ccc(C=CC(=O)c2ccc(-n3c(C)nc4c(cnn4-c4ccccc4)c3=O)cc2)cc1"
assigned_class = "Criterion not met"

[[record]]
smiles_notation = "CO[C@@H]1CSS[C@H]1Cn1nc(-c2ccc(Oc3ccccc3)cc2)c2c(N)ncnc21"
assigned_class = "Criterion not met"

[[record]]
smiles_notation = "COc1cc(/C=C/C(=O)c2ccc(NC(=O)CSc3nnc(-c4c[nH]c5ccccc45)n3-c3ccccc3)cc2)cc(OC)c1OC"
assigned_class = "Criterion met"


###

tested on: K-562 leukemia; test: NCI-60 one-dose screen, 48 h (100 = growth as untreated, 0 = no growth, -100 = all killed); details: 10 µM
The panel holds about 83,000 compounds, 20% with a hit somewhere; the sample as a whole holds those more often.
Values of growth greater than or equal to 50% map to 1 (yes); values below map to 0 (no).

[[record]]
smiles_notation = "N#Cc1c(NC(=O)c2ccc(C(F)(F)F)cc2)sc2c1CCC(=O)C2"
assigned_class = "0 (no)"

[[record]]
smiles_notation = "Nc1nc(-c2ccccc2)cs1"
assigned_class = "0 (no)"

[[record]]
smiles_notation = "O=C(Nc1ccc(I)cc1F)c1cc(-c2ccc(F)cc2F)ccc1O"
assigned_class = "0 (no)"

[[record]]
smiles_notation = "O=C(NO)c1ccc(CNC(=O)[C@H]2Cc3c([nH]c4ccccc34)[C@H](c3ccc(Cl)cc3)N2)cc1"
assigned_class = "0 (no)"

[[record]]
smiles_notation = "Cn1cc(/C=N/Nc2cccc(Cl)n2)c2ccccc21"
assigned_class = "0 (no)"

[[record]]
smiles_notation = "CC(=O)c1cc(C(=O)N2c3ccccc3Sc3ccccc32)n2ccc(C)cc12"
assigned_class = "0 (no)"

[[record]]
smiles_notation = "COc1ccc(/C=N/N=C(\\C)c2ccc3c(c2)Nc2ccccc2S3)cc1O"
assigned_class = "0 (no)"

[[record]]
smiles_notation = "COc1ccc2[nH]c(=O)c(CSc3ccc(Nc4nccc(-c5ccc(Cl)cc5)n4)cc3)cc2c1"
assigned_class = "1 (yes)"

[[record]]
smiles_notation = "Cc1ccc(-c2ccc(SCC(=O)Nc3ccc(S(N)(=O)=O)cc3Br)nn2)cc1"
assigned_class = "1 (yes)"

[[record]]
smiles_notation = "CCN1CCN(Cc2ccc(C(=O)Nc3cccc(-c4cn(-c5ccc6oc(=O)ccc6c5)nn4)c3)cc2C(F)(F)F)CC1"
assigned_class = "0 (no)"

[[record]]
smiles_notation = "Nc1cccnc1/C=N/NC(=S)NCCNC(=O)c1ccc(-n2nc(-c3ccccc3O)nc2-c2ccccc2O)cc1"
assigned_class = "0 (no)"

[[record]]
smiles_notation = "O=C(CSc1nnc(-c2c[nH]c3ccccc23)n1-c1ccccc1)c1ccc(Cl)cc1"
assigned_class = "1 (yes)"

[[record]]
smiles_notation = "C=CC(=O)Nc1ccc(C(=O)/C=C/c2ccc(N(C)CCF)cc2)c(O)c1"
assigned_class = "0 (no)"

[[record]]
smiles_notation = "Cc1ccc(-c2nc(Nc3ccc(C)c(S(N)(=O)=O)c3)c3ccccc3n2)cc1"
assigned_class = "0 (no)"

[[record]]
smiles_notation = "COc1ccc(/C(C)=N/N=C2C(=O)N(C)c3ccc(Br)cc32)cc1S(N)(=O)=O"
assigned_class = "1 (yes)"

[[record]]
smiles_notation = "O=C1Nc2cc(-c3ccc(NC(=O)c4cccs4)cc3)ccc2/C1=C/c1ccc[nH]1"
assigned_class = "1 (yes)"

[[record]]
smiles_notation = "COc1ccc(N(C)c2cc(C#N)nc3ccccc23)cc1/C=C/C(=O)NO"
assigned_class = "0 (no)"

[[record]]
smiles_notation = "N#Cc1c(NC(=O)c2ccc(C(F)(F)F)cc2)sc2c1CCC(O)=C2"
assigned_class = "0 (no)"

[[record]]
smiles_notation = "O=c1[nH]c2ccc(Cl)cc2cc1CSc1ccc(Nc2nccc(-c3ccc4ccccc4c3)n2)cc1"
assigned_class = "1 (yes)"

